meta.source: ChEMBL document CHEMBL3046656

# System: C6
# Experiment description: Cytotoxicity against Rattus norvegicus (rat) C6 cells after 24 hr by MTT assay
# Type: functional, cell-based
# Assay conditions: C6, 24 h
# IC50 per record follows
Output should be the measured figure followed by the unit it is expressed in.

| Molecule | IC50 |
| --- | --- |
| CCn1c2ccccc2c2cc(NC(=O)CSC(=S)N3CCN(CCN(C)C)CC3)ccc21 | 5.9 µg/mL |
| CCn1c2ccccc2c2cc(NC(=O)CSC(=S)N3CCOCC3)ccc21 | 180 µg/mL |
| CCN1CCN(C(=S)SCC(=O)Nc2ccc3c(c2)c2ccccc2n3CC)CC1 | 20 µg/mL |
| CCn1c2ccccc2c2cc(NC(=O)CSC(=S)N3CCC(C)CC3)ccc21 | 167 µg/mL |
| CCN(CC)C(=S)SCC(=O)Nc1ccc2c(c1)c1ccccc1n2CC | 64.3 µg/mL |
| CCn1c2ccccc2c2cc(NC(=O)CSC(=S)N3CCCCC3)ccc21 | 198 µg/mL |
| CCn1c2ccccc2c2cc(NC(=O)CSC(=S)N3CCCCC3C)ccc21 (configuration not stated) | 26.7 µg/mL |
| CCn1c2ccccc2c2cc(NC(=O)CSC(=S)N3CCN(Cc4ccccc4)CC3)ccc21 | 170 µg/mL |
| CCn1c2ccccc2c2cc(NC(=O)CSC(=S)N3CCN(C)CC3)ccc21 | 21.3 µg/mL |
| CCn1c2ccccc2c2cc(NC(=O)CSC(=S)N3CCN(c4ccccc4)CC3)ccc21 | 143 µg/mL |

[ask] Look up IC50: O=C1c2c(O)ccc(O)c2C(=O)c2c(NCCNCCO)ccc(NCCNCCO)c21 [MITOXANTRONE]
[reply] 10.9 µg/mL

[ask] # query: IC50 of entry `CCn1c2ccccc2c2cc(NC(=O)CSC(=S)N3CCCC3)ccc21`
[reply] 75 µg/mL
